# assay explanation: BSK_BT_PBMCCytotoxicity: PBMC Cytotoxicity Assessment in the BioMAP Diversity Plus: BT Assay (AID 2284225);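 note: PBMC viability measured by Alamar Blue dye reduction fluorescence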
# measurement setup: primary human B cells with PBMC
The source made the active and inactive calls. Rule for the calls: active = hit-call score of the fitted dose curve at least 0.9, where 1 is the maximum; inactive = score below 0.9.
measured parameter: AC50

molecule | result
O=C(Cl)c1c(Cl)c(Cl)c(C(=O)Cl)c(Cl)c1Cl | inactive
CC=C(C)C=CC=C(C)C | 19.9 µM (active)
C=CC(=O)NC(C)(C)C | inactive
CC(C)c1cccc(C(C)C)c1N | inactive
c1ccc2sc(SSN3CCOCC3)nc2c1 | 13.2 µM (active)

Query: Could you tell me which AC50 is on file for CCOC(=O)C1=NN(c2ccc(Cl)cc2Cl)C(C)(C(=O)OCC)C1 (stereo unspecified) ?
Reply: inactive

Query: Could you tell me which AC50 is on file for `CC/C=C\CCOC(=O)c1ccccc1O` ?
Reply: inactive

Query: Could you tell me which AC50 is on file for `CCOC(=O)/C=C\C(=O)OCC` ?
Reply: inactive

Query: Could you tell me which AC50 is on file for `CCCCCCC=O` ?
Reply: inactive

Query: Could you tell me which AC50 is on file for `Nc1cccc(N)n1` ?
Reply: inactive
